# procedure_text: Displacement of [3H]ketanserin from 5-HT2 in pig cerebral cortex
# Format: tissue-based, Sus scrofa
pKi: −log10 of the molar value.
endpoint_label: pKi

P. COc1ccccc1N1CCN(Cc2cn([C@@H]3O[C@H](CO)[C@@H](O)[C@H](O)[C@H]3F)nn2)CC1
Q. COc1ccccc1N1CCN(Cc2cn(CCOCCOCCOCCF)nn2)CC1
R. COc1ccccc1N1CCN(Cc2cn(-c3ccc(OCCOCCOCCF)cc3)nn2)CC1
Query: Sort key = pKi. Sort direction = ascending. Apply to the list above. Respond with the label ranking, as requested.
Result: P, Q, R

1. COc1ccccc1N1CCN(Cc2cn(CCOCCOCCF)nn2)CC1
2. COc1ccccc1N1CCN(Cc2cn(-c3ccc(OCCCOC4O[C@H](CO)[C@@H](O)[C@H](O)[C@H]4F)cc3)nn2)CC1 (some centres undefined)
Query: Record comparison, field pKi: mark the lower of 1 and 2 . Answer format: the label of the selected item.
Result: 1
(1: 4.64, 2: 5.11)

====

# procedure_text: Displacement of [3H]WAY100635 from 5-HT1A in pig cerebral cortex
# Format: tissue-based, Sus scrofa
pKi: −log10 of the molar value.
endpoint_label: pKi

Sample answers from the record:
{"compound": "COc1ccccc1N1CCN(Cc2cn(-c3ccc(OCCCOCCF)cc3)nn2)CC1", "pKi": 6.32}
{"compound": "COc1ccccc1N1CCN(Cc2cn([C@@H]3O[C@H](CO)[C@@H](O)[C@H](O)[C@H]3F)nn2)CC1", "pKi": 4.92}
{"compound": "COc1ccccc1N1CCN(Cc2cn(-c3ccc(OCCCF)cc3)nn2)CC1", "pKi": 6.38}
{"compound": "COc1ccccc1N1CCN(Cc2cn(CCOCCOCCOCCF)nn2)CC1", "pKi": 6.11}
{"compound": "COc1ccccc1N1CCN(Cc2cn(-c3ccc(OCCF)cc3)nn2)CC1", "pKi": 6.38}

P. COc1ccccc1N1CCN(Cc2cn(CCOCCOCCF)nn2)CC1
Q. COc1ccccc1N1CCN(Cc2cn(CCCCCCF)nn2)CC1
Query: API: POST /compare with P and Q ; response names the item with higher pKi. Answer format: the label of the selected item.
Result: Q
(Q: 7.27, P: 6.06)

I. COc1ccccc1N1CCN(Cc2cn(-c3ccc(OCCCOC4O[C@H](CO)[C@@H](O)[C@H](O)[C@H]4F)cc3)nn2)CC1 (stereo partly specified)
II. COc1ccccc1N1CCN(Cc2cn([C@@H]3O[C@H](CF)[C@@H](O)[C@H](O)[C@H]3O)nn2)CC1
Query: Record comparison, field pKi: mark the lower of I and II . Answer format: the label of the selected item.
Result: II

a. COc1ccccc1N1CCN(Cc2cn(-c3ccc(OCCOCCOCCF)cc3)nn2)CC1
b. COc1ccccc1N1CCN(Cc2cn(CCOCCF)nn2)CC1
Query: API: POST /compare with a and b ; response names the item with higher pKi. Answer format: the label of the selected item.
Result: b
(b: 6.62, a: 6.25)

====

D(3) dopamine receptor (Homo sapiens, UniProt P35462): recorded Ki for assorted compounds
Sequence (P35462 whole entry): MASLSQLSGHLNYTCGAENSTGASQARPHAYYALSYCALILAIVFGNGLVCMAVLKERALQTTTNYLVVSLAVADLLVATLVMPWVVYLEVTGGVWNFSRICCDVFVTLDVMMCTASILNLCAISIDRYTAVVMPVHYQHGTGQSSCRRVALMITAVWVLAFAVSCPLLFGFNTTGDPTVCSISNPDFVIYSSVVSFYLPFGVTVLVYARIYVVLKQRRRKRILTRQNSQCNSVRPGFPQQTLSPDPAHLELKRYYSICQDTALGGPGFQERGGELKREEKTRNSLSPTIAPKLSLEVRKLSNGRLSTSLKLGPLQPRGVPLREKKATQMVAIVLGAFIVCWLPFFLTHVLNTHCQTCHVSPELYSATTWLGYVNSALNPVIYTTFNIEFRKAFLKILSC
endpoint_label: Ki (µM)

Sample answers from the record:
{"structure_string": "COc1ccccc1N1CCN(Cc2cn(-c3ccc(OCCF)cc3)nn2)CC1", "scale_unit": "µM", "recorded_measurement": 17}
{"structure_string": "COc1ccccc1N1CCN(Cc2cn(-c3ccc(OCCCF)cc3)nn2)CC1", "scale_unit": "µM", "recorded_measurement": 2.8}

A. COc1ccccc1N1CCN(Cc2cn(-c3ccc(OCCCOCCF)cc3)nn2)CC1
B. COc1ccccc1N1CCN(Cc2cn([C@@H]3O[C@H](CO)[C@@H](O)[C@H](O)[C@H]3F)nn2)CC1
C. COc1ccccc1N1CCN(Cc2cn(CCOCCOCCF)nn2)CC1
Query: Rank descending by Ki. Respond with the label ranking, as requested.
Result: B, C, A
(B: 17 µM, C: 5.1 µM, A: 2.9 µM)
